B1: CCDC6 (parent)
chain: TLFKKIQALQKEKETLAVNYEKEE

Variants of: B1
Assay: protein stability index of a GFP-peptide fusion (GPS, HEK-293T) (PSI 1-6); higher = more stable;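 further: lentivirally expressed fusions sorted by FACS into six bins by GFP to DsRed ratio, PSI derived from sequencing read proportions per bin multiplied by bin number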
Conditions: c terminus: a fixed tail appended
Outcome: rule met for protein stability index of at least 3; rule not met for anything lower.

[[record]]
variant = "F3H"
class_assignment = "rule met"

[[record]]
variant = "A17D"
class_assignment = "rule met"

[[record]]
variant = "Q7C"
class_assignment = "rule not met"

[[record]]
variant = "F3I"
class_assignment = "rule met"

[[record]]
variant = "N19R"
class_assignment = "rule not met"

[[record]]
variant = "E14C"
class_assignment = "rule not met"

[[record]]
variant = "K13L"
class_assignment = "rule not met"

[[record]]
variant = "T1A"
class_assignment = "rule met"

[[record]]
variant = "K5N"
class_assignment = "rule met"

[[record]]
variant = "V18L"
class_assignment = "rule met"

[[record]]
variant = "K5E"
class_assignment = "rule met"

[[record]]
variant = "E23A"
class_assignment = "rule not met"

[[record]]
variant = "A8M"
class_assignment = "rule not met"

[[record]]
variant = "Y20K"
class_assignment = "rule met"

[[record]]
variant = "A8T"
class_assignment = "rule met"

[[record]]
variant = "E24A"
class_assignment = "rule not met"

[[record]]
variant = "E12I"
class_assignment = "rule not met"

[[record]]
variant = "N19A"
class_assignment = "rule met"

[[record]]
variant = "K4N"
class_assignment = "rule met"

